# System: HOP-18
# Assay explanation: NCI tumour cell line growth inhibition, 48 h
Activity calls are given as the source filed them. Cut-off read from the data, not from the text of the source: active = GI50 up to about 1.1 µM and inactive = higher.
// classify into 1.0 = active, 0.0 = inactive

[[record]]
molecule = "CN1C(=O)C(=O)N2c3ccc(Cl)cc3C3(c4ccccc4)N=CC12O3 (centres undefined)"
target_or_test_system = "HOP-18"
cat = 0.0

[[record]]
molecule = "COc1cc(NS(C)(=O)=O)ccc1Nc1c2ccccc2nc2ccccc12 [AMSACRINE]"
target_or_test_system = "HOP-18"
cat = 1.0

[[record]]
molecule = "COc1cc(-c2[nH]ccc2Cl)oc1C1=C2N=C3C=C2C(C(C)C)C1CCCCCCCC3 (centres undefined)"
target_or_test_system = "HOP-18"
cat = 1.0

[[record]]
molecule = "O=C1C2ON3c4ccccc4C(=O)C3(c3ccccc3)C2C(=O)N1c1ccccc1 (centres undefined)"
target_or_test_system = "HOP-18"
cat = 0.0

[[record]]
molecule = "CC(=O)OC(C)(C)C1CCC(C)(C(O)COc2ccc(CCNC(=O)c3ccccc3)cc2)O1 (centres undefined)"
target_or_test_system = "HOP-18"
cat = 0.0

[[record]]
molecule = "O=[N+]([O-])c1cc([N+](=O)[O-])c(C(Cl)C(Cl)c2ccccc2)cc1C(Cl)C(Cl)c1ccccc1 (centres undefined)"
target_or_test_system = "HOP-18"
cat = 0.0


-- ask Called result for Cc1nnc(N/N=C(/C(=O)C(C#N)c2ccccc2)C(C#N)c2ccccc2)n1N (centres undefined)
-- reply 0.0

-- ask Could you please tell me the result logged for `CC1=C(C(=O)Nc2ccc([N+](=O)[O-])cc2)C(c2ccc3c(c2)OCO3)C(C(=O)Nc2ccc([N+](=O)[O-])cc2)=C(C)N1` in this assay?
-- reply 0.0

-- ask Kindly provide the recorded test outcome for the following molecule: `COc1ccc(SS(=O)(=O)c2ccc(OC)cc2)cc1`
-- reply 0.0

-- ask Field: outcome | Entry: NC(CN(O)N=O)C(=O)O (centres undefined)
-- reply 0.0

-- ask For `Cc1ccccc1-n1c(=S)[nH]c2c(sc(=O)n2-c2ccccc2C)c1=O` , what call appears in the results of this test?
-- reply 0.0

====

# Tested on: A549
# Assay explanation: NCI tumour cell line growth inhibition, 48 h
Activity calls are given as the source filed them. Rule as the data show it: active = GI50 up to about 1.1 µM and inactive = higher.
Measured quantity: GI50

[[record]]
molecule = "N=C(N)SCc1ccc2c(c1)S(=O)(=O)c1ccccc1O2"
reading = "19 µM (inactive)"


-- ask Can you look up the measured GI50 of CC(C)c1cc(OCC(O)CO)cc(C(C)C)c1 (stereo unspecified) for me?
-- reply > 100 µM (inactive)

-- ask // GI50 lookup, key: `Nc1nc(N)c2ncn(Cc3ccccc3CCl)c2n1`
-- reply > 100 µM (inactive)

====

# Tested on: HOP-62
# Assay explanation: NCI tumour cell line growth inhibition, 48 h
Calls of active or inactive are those of the source. Rule as the data show it: active = GI50 up to about 1.1 µM and inactive = higher.
Use one of these outcomes when replying: y for active, n for inactive

[[record]]
molecule = "COc1ccc(/N=N/c2ccc3oc(=O)c(C(=O)Nc4ccccc4)cc3c2)cc1"
cat = "n"

[[record]]
molecule = "CCOC(=O)c1c(Sc2ccc([N+](=O)[O-])cc2[N+](=O)[O-])nc2c3ccccc3ccn12"
cat = "n"

[[record]]
molecule = "Cc1ccc2c(c1)C(=O)c1nc(C)ccc1C2=O"
cat = "n"


-- ask // outcome(item) with item = `O=[As](O)(O)c1ccc(Cc2ccc([As](=O)(O)O)cc2)cc1`
-- reply n

-- ask Which outcome was entered for the molecule `C/C(=N\Nc1nc2ccccc2n1C)c1ccc2ccccc2n1` in this test?
-- reply n

-- ask What call does the record list for `Cc1cc(N(CCC#N)CCC#N)ccc1C(/N=N/c1ccccc1)=N\NC(=O)c1cc(Cl)ccc1O` ?
-- reply n

====

The listing below reports GI50 for molecules tested on HCT-15.
Your answer is read as µM, so omit the unit and give the number.

Previously resolved entries follow.
[[record]]
molecule = "O=[N+]([O-])C(/C=C(\\Cl)[N+](=O)[O-])=C1Nc2ccccc2N1"
target_or_test_system = "HCT-15"
reading = 59.4

[[record]]
molecule = "CN(C)CCNC(=O)Cc1ccccc1Nc1c(Cl)cccc1Cl"
target_or_test_system = "HCT-15"
reading = 15.6

[[record]]
molecule = "O=C(CC(O)(C(F)(F)F)C(F)(F)F)c1cc(CC(=O)C(O)(C(F)(F)F)C(F)(F)F)cc(CC(=O)C(O)(C(F)(F)F)C(F)(F)F)c1"
target_or_test_system = "HCT-15"
reading = 0.971


-- ask Would you mind telling me what GI50 value was observed for COC(=O)C1=C(C=O)C2C=CC1C2 (stereo not given) ?
-- reply 42.1

-- ask GI50 lookup needed for `O=C(/C=C/c1ccc(Cl)cc1)c1ccccc(=O)c1O` , thanks.
-- reply 0.341

-- ask GI50 for `COc1ccc(Cc2nc3ccccc3s2)cc1OC` ?
-- reply 24.2

-- ask Quick one: GI50 of `CN(C)CCNC(=O)c1ccc(NCCCN(C)CCCNc2ccc(C(=O)NCCN(C)C)c3nc4ccccc4c(O)c23)c2c(O)c3ccccc3nc12` ?
-- reply 0.486

-- ask Can you share its GI50? I mean this molecule: CCCCCCCCCCCCCCCCCC(=O)OCC(COC(=O)CCCN)OC(=O)CCCN (stereo not given)
-- reply 23.7

-- ask Dear colleague, I am looking for the recorded GI50 of the following molecule: COc1cc(C2C(Cl)C(=O)N2NC(=O)c2ccc(N)cc2)ccc1O (stereo not given)
-- reply 39.9

====

# System: SK-MEL-28
# Assay explanation: NCI tumour cell line growth inhibition, 48 h
Calls of active or inactive are those of the source. Rule as the data show it: active = GI50 up to about 1.1 µM and inactive = higher.
Measured quantity: GI50

-- ask Which measured GI50 value corresponds to `O=[N+]([O-])C(/C=C(\Cl)[N+](=O)[O-])=C1Nc2ccccc2N1` ?
-- reply 42.3 µM (inactive)

-- ask Record request: GI50 value, item `N=C(N)Nc1ccc(-c2ccc(NC(=N)N)cc2)cc1`
-- reply 45.5 µM (inactive)

-- ask Which GI50 is reported for this molecule? `Cn1c(=O)c2nc(CCNC(=O)c3ccccc3)[nH]c2n(C)c1=O`
-- reply > 100 µM (inactive)

-- ask Look at this molecule and give its reported GI50. CCCCCCC1CCC2CCCC(C)N12 (stereo unspecified)
-- reply 53.6 µM (inactive)

-- ask Which measured GI50 value corresponds to `Cc1cc(N)c(C)c2c1[nH]c1ccc(O)cc12` ?
-- reply > 100 µM (inactive)

-- ask What does the record list as GI50 for Cc1ccc(S(=O)(=O)N/N=C2/CCC(C(C)(C)C)CC2Br)cc1 (stereo unspecified) ?
-- reply 19.6 µM (inactive)

====

# System: HOP-62
# Assay explanation: NCI tumour cell line growth inhibition, 48 h
The source made the active and inactive calls. Rule as the data show it: active = GI50 up to about 1.1 µM and inactive = higher.
Measured quantity: GI50

Known results for compounds:
[[record]]
compound = "CC(C)SC(C)(NC(=O)C1C(C)(C)CCC1(C)C)C(=O)O (stereo unspecified)"
reading = "> 100 µM (inactive)"

[[record]]
compound = "CCOC(=O)c1c(-c2ccc(OC)cc2)c(C#N)c(=S)n(C2OC(CO)C(O)C(O)C2O)c1C (stereo unspecified)"
reading = "> 100 µM (inactive)"

[[record]]
compound = "CCCCCN1CCN(c2ncccn2)CC1"
reading = "> 100 µM (inactive)"

[[record]]
compound = "N=C(N)SCc1ccc2c(c1)S(=O)(=O)c1ccccc1O2"
reading = "19 µM (inactive)"


-- ask Param item = `O=c1[nH]c2c(Nc3c4ccccc4nc4ccccc34)c([N+](=O)[O-])c(Nc3c4ccccc4nc4ccccc34)c([N+](=O)[O-])c2[nH]1` ; retrieve measured GI50.
-- reply 1.69 µM (inactive)

-- ask I have this compound here, C=CC1(O)CCCC=C1COCc1ccccc1 (stereo unspecified) , and I need its recorded GI50.
-- reply > 100 µM (inactive)

-- ask Can you look up the measured GI50 of `CCOC(=O)c1c(O)nc2cccc3c2c1-c1cccnc1S3` for me?
-- reply 25.5 µM (inactive)

-- ask Which GI50 is reported for this compound? `COc1ccc2nc3c(c(NCCCN(C)C)c2c1)CCCC3`
-- reply 16.4 µM (inactive)

-- ask Which GI50 value belongs to `N#Cc1[nH]c(=S)[nH]c1N` ?
-- reply > 100 µM (inactive)

-- ask Look up GI50 for this compound: CC(Oc1ccc2cc(C(=O)c3ccccc3)c(=O)oc2c1)C(=O)O (stereo unspecified)
-- reply > 100 µM (inactive)

-- ask Quick check: GI50 of C=CC1=C(C)/C(=C/C2=NC(=C\c3[nH]c(CC4NC(=O)C(C)/C4=C\C)c(C)c3CCC(=O)O)/C(CC(=O)O)=C2C)NC1=O (stereo unspecified) ?
-- reply > 100 µM (inactive)

-- ask Any idea what GI50 was measured for CCCCc1ccc2[n+](c1)C(C(=O)OCC)=PC2 (stereo unspecified) ?
-- reply > 100 µM (inactive)

-- ask Which GI50 is listed for COc1ccc(NC(=O)CC(=O)NNC(Sc2ccccc2)c2cc(/N=N/c3ccc(Br)cc3)ccc2O)cc1 (stereo unspecified) ?
-- reply > 10 µM (inactive)
